Test system: SNB-78
TEST DESCRIPTION: NCI tumour cell line growth inhibition, 48 h
Calls of active or inactive are those of the source. Rule as the data show it: active = GI50 up to about 1.1 µM and inactive = higher.
MEASUREMENT KIND: GI50

These recorded examples may help you get a feel for the data.
MOLECULE: COC(=O)C1=C(C)N(NC(N)=O)C(C)(O)C12CCOC2=O (centres undefined)
ENDPOINT VALUE: > 100 µM (inactive)
//
MOLECULE: COc1cc2c(cc1OC)-c1c3c(cc4c1[C@@H](C2)N(C)CC4)OCO3
ENDPOINT VALUE: 11.6 µM (inactive)
//
MOLECULE: C=C1C(=O)OC2C1CC[C@H](C)C1(O)C(O)CC(=O)[C@@]21C (some centres undefined)
ENDPOINT VALUE: 26.7 µM (inactive)
//
MOLECULE: Cc1ccc(/C=C2\CCCC\C2=N\O)cc1
ENDPOINT VALUE: 30.3 µM (inactive)
//
MOLECULE: CN/N=C(/CC(=O)c1sc(-n2nc(-c3ccccc3)cc2-c2ccccc2)nc1C)C(=O)Nc1ccc(Cl)c(Cl)c1
ENDPOINT VALUE: 14 µM (inactive)

Consider the molecule shown here: c1ccc(OCCSCCCCCCCCCCSCCOc2ccccc2)cc1 What is its recorded GI50?
> 100 µM (inactive)

Entry to check: O=C(O)/C=C/c1c[nH]c(=O)[nH]c1=O
> 250 µM (inactive)

Would you kindly repeat that for COc1ccc(C2ON(c3cccc(C)n3)CC=C2C)cc1 (centres undefined) ?
37.4 µM (inactive)

Proceed to CC1(O)CC2C(CC1SC1CC3C(CC1(C)O)C3(C)C)C2(C)C (centres undefined)
73.3 µM (inactive)
